Measured inhibition at 10 µg/mL accompanies every entry in the list below.
Tested on: MCF-7
Assay: MTT cell proliferation assay, MCF-7
Type: cell-based, human
Settings: Homo sapiens, MCF7; Table 4; 10 μg/ml; read-out: Percentage Inhibition of cell proliferation MCF-7
Returns: string containing the numeric result and its unit.

Past entries and their recorded results:
{"compound": "CC(=O)O[C@@H]1CC[C@@]2(C)C(CC[C@]3(C)C2C(=O)C=C2C4[C@@H](C)[C@H](C)CC[C@]4(C)CC[C@]23C)[C@@]1(C)C(=O)n1ccnc1 (some centres unmarked) [Analog 40]", "result": "2.7%"}
{"compound": "CNC(=O)[C@]1(C)C2CC[C@]3(C)C(C(=O)C=C4C5[C@@H](C)[C@H](C)CC[C@]5(C)CC[C@]43C)[C@@]2(C)CC[C@H]1OC(C)=O (some centres unmarked) [Analog 43]", "result": "12.6%"}
{"compound": "COC(=O)CCC(NC(=O)[C@]1(C)C2CC[C@]3(C)C(C(=O)C=C4C5[C@@H](C)[C@H](C)CC[C@]5(C)CC[C@]43C)[C@@]2(C)CC[C@H]1OC(C)=O)C(=O)OC (some centres unmarked) [Analog 56]", "result": "20%"}

Can you share its inhibition at 10 µg/mL? I mean this compound: CC(=O)O[C@@H]1CC[C@@]2(C)C(CC[C@]3(C)C2C(=O)C=C2C4[C@@H](C)[C@H](C)CC[C@]4(C)CC[C@]23C)[C@@]1(C)C(=O)Nc1ccccc1 (some centres unmarked) [Analog 42]
2.33%

I would be grateful if you could share the reported inhibition at 10 µg/mL for CC(=O)O[C@@H]1CC[C@@]2(C)C(CC[C@]3(C)C2C(=O)C=C2C4[C@@H](C)[C@H](C)CC[C@]4(C)CC[C@]23C)[C@@]1(C)C(=O)NN (some centres unmarked) [Analog 20] .
44%
